biological target: TetR (class B, Tn10); assay: TetR repression strength (sort-seq, GFP reporter) (relative to tetO2 = 1); higher = stronger repression; settings: E. coli
Over roughly 18,000 sequences, “TetR repression strength (sort-seq, GFP reporter)” has its median near 0.23; the highest 2% begin near 0.68. For the sample, the highest values were picked, then their nearest neighbours and some sequences at random.
Each entry below carries its reported TetR repression strength.
// return a plain number; no unit text

- TCCCGCAGAGTTGGCGAGA: 0.186

Query: I am curious: what TetR repression strength value has been reported for TCCCGGACAGTGTGTGAGA ?
Response: 0.2

Query: I am curious: what TetR repression strength value has been reported for TCCCTCTAAGTTGAGGAGA ?
Response: 0.0793

Query: I am curious: what TetR repression strength value has been reported for TCCCAAGAAGTAGGTGAGA ?
Response: 0.23

Query: I am curious: what TetR repression strength value has been reported for TCCCTATTAGTGAGTGAGA ?
Response: 0.762

Query: I am curious: what TetR repression strength value has been reported for TCCCAGTCAGTGATCGAGA ?
Response: 0.322

Query: I am curious: what TetR repression strength value has been reported for TCCCTATAAGTGAGGGAGA ?
Response: 0.237

Query: I am curious: what TetR repression strength value has been reported for TCCCTTTGAGTAAGTGAGA ?
Response: 1.15

Query: I am curious: what TetR repression strength value has been reported for TCCCTTGTAGTATGTGAGA ?
Response: 0.133

The origin of these recorded values is a collection of fitness landscapes (doi:10.1038/s41467-024-54723-y).
